Molecular target: Gastrin/cholecystokinin type B receptor (Rattus norvegicus, UniProt P30553)
Sequence (P30553 whole entry): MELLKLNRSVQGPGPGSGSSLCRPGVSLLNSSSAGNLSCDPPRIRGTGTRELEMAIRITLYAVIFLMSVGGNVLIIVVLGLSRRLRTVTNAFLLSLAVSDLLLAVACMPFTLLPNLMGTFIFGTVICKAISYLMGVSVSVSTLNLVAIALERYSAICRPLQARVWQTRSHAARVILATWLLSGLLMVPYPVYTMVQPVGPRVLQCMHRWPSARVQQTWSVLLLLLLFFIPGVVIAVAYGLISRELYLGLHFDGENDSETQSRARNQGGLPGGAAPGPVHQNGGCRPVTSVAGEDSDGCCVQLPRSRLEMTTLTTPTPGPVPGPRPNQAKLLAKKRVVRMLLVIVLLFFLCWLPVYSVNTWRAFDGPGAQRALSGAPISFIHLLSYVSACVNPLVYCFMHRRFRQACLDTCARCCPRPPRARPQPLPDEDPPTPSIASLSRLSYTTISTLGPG
Experiment: Affinity to inhibit [3H]pCCK-8 specific binding on rat brain Cholecystokinin type B receptor expressed in CHO cells
Assay type: cell-based
Non-standard residues stand in square brackets, D forms with d. Residues, ends and D or L forms follow the SMILES beside them. *: point of attachment. NMeNle = CCCC[C@H](NC)C(=O)O; Boc = CC(C)(C)OC(=O)*
experimental_readout: pKi
Field pKi (float): negative decimal logarithm of the concentration in molar.

Form field: reported pKi of CCCC[C@@H](C(=O)N[C@@H](CC(=O)O)C(=O)N[C@@H](Cc1ccccc1)C(N)=O)N(C)C(=O)[C@H](Cc1c[nH]c2ccccc12)NC(=O)OC(C)(C)C (Boc-W[NMeNle]DF-NH2)
8.06
